tested on: DNA topoisomerase I (Bos taurus)
quantity_measured: MIC (µM)
Express your answer in µM, writing the number without its unit.

Below, 5 compounds whose answers are already recorded.
CN1C(=O)c2c(c3c4ccccc4n(C4OC(CO)C(O)C(O)C4O)c3c3[nH]c4ccccc4c23)C1=O (stereo in doubt; 8)    2
CN1C(=O)c2c(c3c4ccccc4n(C4OC(CO)C(O)C(O)C4O)c3c3[nH]c4ccccc4c23)C1=O (stereo in doubt; 10)    0.6
CO[C@H]1[C@H](O)[C@@H](O)[C@H](n2c3ccccc3c3c4c(c5c6ccccc6[nH]c5c32)C(=O)N(C)C4=O)O[C@@H]1CO    0.6
CN1C(=O)c2c(c3c4ccccc4n(C4OC(CO)C(O)C(O)C4O)c3c3[nH]c4ccccc4c23)C1=O (stereo in doubt; 9)    6
CC1OC(n2c3ccccc3c3c4c(c5c6ccccc6[nH]c5c32)C(=O)N(C)C4=O)C(O)C(O)C1O (stereo in doubt; 14)    2

Consider now this further compound.
**Query** Which MIC value is on record for CO[C@H]1[C@H](O)[C@@H](O)[C@H](n2c3ccccc3c3c4c(c5c6ccccc6[nH]c5c32)C(=O)NC4=O)O[C@@H]1CO ?
**Result** 1.95

----------
Reported MIC, DNA topoisomerase I (Bos taurus).

CC(=O)OCC1OC(n2c3ccccc3c3c4c(c5c6ccccc6[nH]c5c32)C(=O)N(C)C4=O)C(OC(C)=O)C(OC(C)=O)C1OC(C)=O (stereo in doubt; 5)    > 15 µM
CC(=O)OCC1OC(n2c3ccccc3c3c4c(c5c6ccccc6[nH]c5c32)C(=O)N(C)C4=O)C(OC(C)=O)C(OC(C)=O)C1OC(C)=O (stereo in doubt; 4)    > 15 µM
CN1C(=O)c2c(c3c4ccccc4n(C4OC(CO)C(O)C(O)C4O)c3c3[nH]c4ccccc4c23)C1=O (stereo in doubt; 7)    > 20 µM

**Query** Notebook entry, DNA topoisomerase I (Bos taurus) assay: MIC of CC(=O)OCC1OC(n2c3ccccc3c3c4c(c5c6ccccc6[nH]c5c32)C(=O)N(C)C4=O)C(OC(C)=O)C(OC(C)=O)C1OC(C)=O (stereo in doubt; 6) = ?
**Result** > 15 µM

**Query** Notebook entry, DNA topoisomerase I (Bos taurus) assay: MIC of CC(=O)OCC1OC(n2c3ccccc3c3c4c(c5c6ccccc6[nH]c5c32)C(=O)N(C)C4=O)C(OC(C)=O)C(OC(C)=O)C1OC(C)=O (stereo in doubt; 3) = ?
**Result** > 15 µM

**Query** Notebook entry, DNA topoisomerase I (Bos taurus) assay: MIC of CC1OC(n2c3ccccc3c3c4c(c5c6ccccc6[nH]c5c32)C(=O)N(C)C4=O)C(O)C(O)C1O (stereo in doubt; 13) = ?
**Result** > 20 µM

The measured values listed here are drawn from ChEMBL document CHEMBL1130191.
